tested on: NCI-H522; assay: Antiproliferative activity against human NCI-H522 cells assessed as inhibition of cell growth at 10 uM measured after 48 hrs by SRB assay relative to control; format: functional; settings: NCI-H522, 48 h, read-out: GI
# Lookup of reported inhibition of growth at 10 µM keyed by entry
Expressed in %, but write only the number.

Query inhibition of growth at 10 µM on NCI-H522 for O=C1CC(c2ccccc2)Cc2nc3ccc(Br)cc3cc21 (stereo not given)
104

Query inhibition of growth at 10 µM on NCI-H522 for COc1ccc2nc3c(cc2c1)C(=O)CC(C(F)(F)F)C3 (stereo not given)
68.1

Query inhibition of growth at 10 µM on NCI-H522 for O=C1CC(c2ccccc2)Cc2nc3c(Br)cc(Br)cc3cc21 (stereo not given)
91.5

Query inhibition of growth at 10 µM on NCI-H522 for O=C1CC(c2ccccc2)Cc2nc3ccc(Cl)cc3cc21 (stereo not given)
97

Query inhibition of growth at 10 µM on NCI-H522 for COc1ccc2nc3c(cc2c1)C(=O)CC(c1ccccc1)C3 (stereo not given)
84.6
